Test system: K562
assay_overview: NCI tumour cell line growth inhibition, 48 h
Activity calls are given as the source filed them. Cut-off read from the data, not from the text of the source: active = GI50 up to about 1.1 µM and inactive = higher.
Labels: active, inactive

molecule	target_or_test_system	class
O=C1OC(c2ccccc2)=N/C1=C/N1CCCC1C(=O)O (stereo not drawn)	K562	inactive
CC(C)CN(CC#N)CC(C)C	K562	inactive
Cc1ccc2c(O)cc(-c3csc4ccccc34)nc2n1	K562	active
C/C(=N\c1ccc(Cl)cc1)c1ccncc1	K562	inactive
COC(=O)Nc1nc2cc(C(=O)c3cccs3)ccc2[nH]1 [NOCODAZOLE]	K562	active
CC1=Nc2c(ccc3c2C(=O)c2ccccc2C3=O)NC(c2ccncc2)C1 (stereo not drawn)	K562	inactive
O=c1oc2c3ccc4ccccc4c3n(CCCN3CCCCC3)c2c2ccccc12	K562	inactive
COc1ccc(C)cc1NC(=S)N/N=C/c1ccc(SC)cc1	K562	inactive
Cc1ccc2c(n1)C(=O)C=CC2=O	K562	inactive
Cc1cccc2c1C(=O)[C@@](C)([C@]1(C)Nc3cccc(C)c3C1=O)N2	K562	inactive
O=C(CNc1ccc([N+](=O)[O-])cc1)Nn1c(-c2ccccc2)nc2ccccc2c1=O	K562	inactive
Clc1cc2nnn(C3CCCO3)c2cc1Cl (stereo not drawn)	K562	inactive
C1=CC2=CC=CC3c4nc5ccc6ccccc6c5nc4C(=C1)C23 (stereo not drawn)	K562	inactive
O=C1CCSSCCC(=O)Nc2ccccc2N1	K562	inactive
CCn1c2nc(=O)n(CCCCCCCCSC(c3ccccc3)(c3ccccc3)c3ccccc3)c(=O)c-2nc2ccccc21	K562	inactive
O=C/C1=C/C2=Cc3ccccc3C=C(/C=C(/C=O)C1)C2	K562	inactive
COc1ccc(CCN2CCN(CCc3ccc(OC)cc3)CC2)cc1	K562	inactive
COc1cc2c[n+](C)c3c4cc(OC)c(OC(C)C)cc4ccc3c2cc1OC	K562	inactive
O=c1c(C(c2ccc(-c3ccccc3)cc2)c2c(O)oc3ccccc3c2=O)c(O)oc2ccccc12	K562	inactive
O=C(O)C1C(C(=O)O)C(C(=O)O)C1C(=O)O (stereo not drawn)	K562	inactive
O=c1c2ccccc2n2nnc3ccc(NCCCNCCNCCCNc4ccc5nnn6c7ccccc7c(=O)c4c56)c1c32	K562	active
O=C1/C(=C\c2ccco2)Oc2ccccc21	K562	inactive
OC1c2ccccc2CCC1CN1CCN(CCOC(c2ccc(F)cc2)c2ccc(F)cc2)CC1 (stereo not drawn)	K562	inactive

###

Test system: KM-20L2
assay_overview: NCI tumour cell line growth inhibition, 48 h
Active and inactive are the calls of the source. Rule as the data show it: active = GI50 up to about 1.1 µM and inactive = higher.
Outcome codes: t for active, f for inactive

compound	class
CC(C)(C)C(=O)/C=C/c1cccc(Oc2ccccc2)c1	f
COC(=O)CC1NC(=O)[C@@H]1C(C)O (some centres not stated)	f
N[C@H](C(=O)O)[C@H]1ON=C(Cl)[C@@H]1O	t
CC1=NN(C(=O)CC(=O)Nc2ccccc2F)C(=O)C1/N=N/c1ccccc1[N+](=O)[O-] (configuration not stated)	f
COc1ccc(NC(=O)CC/C(CC(=O)C(C)(C)C)=N\NC(=O)C(N)=O)cc1	f
COC(=O)CC(NC(=O)OCc1ccccc1)C(C(C)=O)C(=O)OCc1ccccc1 (configuration not stated)	f
CCN(CC)CCCNC(=O)c1ccc([N+](=O)[O-])cc1O	f
C#CCOc1c(C(=O)OCC)c(=O)n(C)c2ccccc12	f
O=C1c2ccccc2C2(O)N(c3ccccc3)C(=S)N(c3ccccc3)C12O (configuration not stated)	f
Cc1ccccc1/C=C/C(=O)c1ccccc1	f
Cc1cc2c(=O)c(C)n[nH]c2c(C#N)c1C	f
C/C(=N\NC(=S)N1CCC1)c1ccccn1	t
CCN1CCC(O)(c2ccccc2)C(C(=O)c2ccccc2)C1 (configuration not stated)	f
COC1C=COC2(C)Oc3c(C)c(O)c4c(O)c(c(/C=N/N5CCN(N)CC5)c(O)c4c3C2=O)NC(=O)C(C)=CC=CC(C)C(O)C(C)C(O)C(C)C(OC(C)=O)C1C (configuration not stated)	f
COC(=O)CC(c1ccccc1)C1(c2ccccc2)SCCS1 (configuration not stated)	f
C=C1C(=O)C23CC1CCC2C12CO[C@@H]4OCC(C)(CC[C@@H]1OC3=O)C42 (some centres not stated)	f
CC1(c2cccc(C3CC4(CCC3=O)OCCCCO4)c2)OCCO1 (configuration not stated)	f
C=C1CN2CCc3c([nH]c4ccccc34)C2CC1CC(=O)N(C)C (configuration not stated)	f
Brc1c2nc3ccccc3nc2n2ccc3ccccc3c12	f
N#C/C(=C\c1cc(O)c(O)c(O)c1)C(N)=O	f
CN(C)CCCOc1ccc(/C=C2/CCC/C(=C/c3ccc(OCCCN(C)C)cc3)C2=O)cc1	t
Cn1nc(N)nc1N=S(C)(C)=N	f

###

Test system: SNB-19
assay_overview: NCI tumour cell line growth inhibition, 48 h
The source made the active and inactive calls. Cut-off read from the data, not from the text of the source: active = GI50 up to about 1.1 µM and inactive = higher.
Outcomes: y (active), n (inactive)

compound	class
O=C(O)CC12C3C4C5C3C1C5C42 (configuration not stated)	n
O=C1/C(=C\c2ccco2)Oc2ccccc21	n
COc1ccc(N2C(=O)CS(=O)(=O)C2c2cccc(Oc3ccccc3)c2)cc1 (configuration not stated)	n
CN(CCCCCl)P(=O)(OCc1ccc([N+](=O)[O-])o1)OCC1OC(n2ccc(N)nc2=O)C(O)C1O (configuration not stated)	n
[O-][N+]1=NC(c2ccccc2)=C1c1ccccc1	n
Cc1cc2nc(N3C(=O)/C(=C/c4ccccc4S)N=C3c3ccccc3)sc2cc1C	n
CN(C)CCNC(=O)Cn1ccc(=O)c2ccc([N+](=O)[O-])cc21	n
CSc1nc(C)cc(Nc2ccc(O)c(CN3CCOCC3)c2)n1	n
COC(=O)C1CCCC2(C1)OCCO2 (configuration not stated)	n
COc1ncn(C2C=C(CO)C(O)C2O)c(=O)n1 (configuration not stated)	y
COc1ccc(/C=C2\CCC(CCN(C)C)(C3=CCCC3)C2=O)cc1 (configuration not stated)	n
COC(OC)C1OCC(n2cc(F)c(=O)[nH]c2=O)C1O (configuration not stated)	n
Cc1ccc(S(=O)(=O)N2CCSCCSCCSCCSCC2)cc1	n
COc1cc(/C=C/C(=O)N[C@@H]2C(=O)N3[C@@H]2SC(C)(C)[C@@H]3C(=O)O)ccc1O	n
COc1ccccc1NC(=O)C1=C(C)NC(C)=C(C(=O)Nc2ccccc2OC)C1C1=CC=COC1	n
CSCCC(NC(c1ccccc1)c1ccccc1)[PH](=O)O (configuration not stated)	n
O=C1/C(=C/c2ccccc2)CCCC/C1=C\c1ccccc1	n
NNC(=O)C1CCC(=O)N1S(=O)(=O)c1ccccc1 (configuration not stated)	n
Cc1cc(Cl)ccc1/N=N/C(=O)NNc1ccc(Cl)cc1C	n
O=C(CC1C(=O)Nc2ccccc2S1(=O)=O)Nc1ccc(Cl)cc1 (configuration not stated)	n
CC1(C)CO[P@@](=S)(c2ccccn2)O[C@@H]1c1ccccc1	n
COc1ccc2c(c1)O[C@@H]1[C@@H](OC3OC(CO)C(O)C(O)C3O)Oc3cc(OC)c(OC)cc3[C@]1(O)C2=O (some centres not stated)	n

###

Quick list: GI50 per entry.
Test system: SK-MEL-2
assay_overview: NCI tumour cell line growth inhibition, 48 h
Calls of active or inactive are those of the source. No stated cut-off is given here; in the data, active = GI50 up to about 1.1 µM and inactive = higher.

molecule	GI50
COC(OC)C1OCC(n2cc(F)c(=O)[nH]c2=O)C1O (stereo unspecified)	> 100 µM (inactive)
CSC1=Nc2ccccc2N=C(c2ccc(Cl)cc2)C1	25.4 µM (inactive)
C=CCC1(CN(C)C)CC/C(=C\c2ccc3c(c2)OCO3)C1=O (stereo unspecified)	> 100 µM (inactive)
O=C1/C(=C/c2ccccc2)CCCC/C1=C\c1ccccc1	47.9 µM (inactive)
CCC(CCN)(CCN)[N+](=O)[O-]	> 100 µM (inactive)
Cc1ccc(Nc2nc3[nH]ccc3c(=O)[nH]2)cc1	> 100 µM (inactive)

###

Tested on: HCC 2998
assay_overview: NCI tumour cell line growth inhibition, 48 h
The source made the active and inactive calls. No stated cut-off is given here; in the data, active = GI50 up to about 1.1 µM and inactive = higher.
Known GI50 of a selection of molecules

molecule	GI50
CSC1=Nc2ccccc2N=C(c2ccc(Cl)cc2)C1	> 10 µM (inactive)
CN(C)CCNC(=O)Cn1ccc(=O)c2ccc([N+](=O)[O-])cc21	> 100 µM (inactive)
CC1(C)CO[P@@](=S)(c2ccccn2)O[C@@H]1c1ccccc1	> 100 µM (inactive)
C=C1C(=O)C23CC1CCC2C12CO[C@@H]4OCC(C)(CC[C@@H]1OC3=O)C42 (stereo partly specified)	16.4 µM (inactive)
CN(C)C(=S)/N=c1\ss/c(=N\C(=S)N(C)C)n1-c1ccc2c(c1)OCO2	> 100 µM (inactive)
COc1ncn(C2C=C(CO)C(O)C2O)c(=O)n1 (stereo unspecified)	> 100 µM (inactive)

###

// reported GI50 per item
Test system: HCC 2998
assay_overview: NCI tumour cell line growth inhibition, 48 h
Active and inactive are the calls of the source. No stated cut-off is given here; in the data, active = GI50 up to about 1.1 µM and inactive = higher.

compound	GI50
CC(O)(Cc1ccccc1C#N)Cc1ccccc1C#N	> 100 µM (inactive)
CSc1nc(SC)c2c(C)cn(Cc3ccccc3)c2n1	44.1 µM (inactive)
OC(c1ccc(Cl)cc1)(c1ccc(Cl)cc1)c1cncnc1	> 10 µM (inactive)
COc1ccc2c(c1)[C@@H]1c3cc(OC)c(OC)cc3CCN1CCC2	> 100 µM (inactive)
O=C1c2cc3c(cc2CC12Cc1cc4c(cc1C2=O)CCC4)CCCC3 (stereo unspecified)	> 100 µM (inactive)
O=C(CC(C(=O)c1cccs1)c1ccsc1)c1ccccc1 (stereo unspecified)	> 100 µM (inactive)
Cn1ccnc1CC(C)(O)c1ccccc1 (stereo unspecified)	> 100 µM (inactive)
CN/C(N)=N/N=C1/C(=O)Nc2ccccc21	> 100 µM (inactive)
N=S(=O)(c1ccccc1)c1ccccc1	> 100 µM (inactive)
Cc1ccc(NC(=O)c2cc(S(=O)(=O)Nc3n[nH]c(=O)[nH]3)c(SSc3cc(Cl)c(C(=O)Nc4ccc(C)cc4)cc3S(=O)(=O)Nc3n[nH]c(=O)[nH]3)cc2Cl)cc1	> 100 µM (inactive)
CN(CCCN(C)Cc1ccc(Cl)c(Cl)c1)CCN1CCCC1	3.5 µM (inactive)

Reference for the values: ChEMBL document CHEMBL1201862
